system: SF-539 CNS; test: NCI tumour cell line growth inhibition, 48 h; in the data active means GI50 below about 0.43 µM; inactive means the rest
Classes used: 1 for active, -1 for inactive

{"Molecule": "COc1ccc2c(c1)=C(C=C1C=CN(O)C=C1)C(=O)N=2", "Group": -1}
{"Molecule": "CN(CCCCCl)P(=O)(OCc1ccc([N+](=O)[O-])o1)OCC1OC(n2ccc(N)nc2=O)C(F)(F)C1O (centres undefined)", "Group": 1}
{"Molecule": "CCOc1ccccc1NC(=O)c1cc2ccccc2cc1O", "Group": -1}
{"Molecule": "Cn1cc(C2=C(c3cn(CCO)c4ccccc34)C(=O)NC2=O)c2ccccc21", "Group": -1}
{"Molecule": "Nc1ncnc2c1ncn2Cc1ccc(C23CC4CC(CC(C4)C2)C3)c(OCc2cc(F)c(F)cc2F)c1", "Group": -1}
{"Molecule": "CN(Cc1ccc(Cl)cc1)c1ccc(CO)c(Cl)c1", "Group": -1}
{"Molecule": "Fc1ccc(-c2nn3c(-c4ccc(F)c(Cl)c4)nnc3s2)cc1", "Group": -1}
{"Molecule": "COc1cccc(C2C3=C(COC3=O)N(CCO)c3cc(OC)ccc32)c1 (centres undefined)", "Group": 1}
{"Molecule": "[Cl][Sn]([Cl])([c]1ccccc1)[c]1ccccc1", "Group": -1}
{"Molecule": "Cc1cc(NCCCNc2ccnc3cc(Cl)ccc23)nc(N2CCN(C)CC2)n1", "Group": -1}
{"Molecule": "CC(C)Nc1ccc(Nc2ccccc2)cc1", "Group": -1}
{"Molecule": "O=c1ccc(N=Nc2ccc([N+](=O)[O-])cc2)ccc1O", "Group": -1}
{"Molecule": "Cc1ccc2c(c1)c1nc3cc(C)c(C)cc3nc1n2CCN(C)C", "Group": -1}
{"Molecule": "CCOC(=O)c1sc2ncn(Cc3cccc(Br)c3)c(=O)c2c1C", "Group": -1}
{"Molecule": "CCOc1ccc(-c2cnnn2-c2nonc2-n2cccc2)cc1", "Group": 1}
{"Molecule": "c1ccc(C2CC(c3cccc(Nc4ccncc4)c3)=NN2c2ccccc2)cc1 (centres undefined)", "Group": -1}
{"Molecule": "CC(=O)Nc1ccc(/C=C/C(=O)c2ccccc2)cc1", "Group": -1}
{"Molecule": "N#Cc1cccc(OCc2nc(N)nc(N)c2-c2ccc(Cl)c(Cl)c2)c1", "Group": -1}
{"Molecule": "CCCCCc1nc2c(c3c1CCCC3)CCCC2", "Group": -1}

###

test system: MOLT-4 leukemia; experiment: NCI tumour cell line growth inhibition, 48 h
Listed here: items and their measured TGI.
Readout: TGI

{"Compound": "Nc1nc2sc3ccccc3c(=O)n2n1", "Readout": "TGI", "Recorded Value": "> 100 µM"}
{"Compound": "Cc1noc2cccc(OCc3ccccc3)c12", "Readout": "TGI", "Recorded Value": "> 100 µM"}
{"Compound": "C/C=C/C1=C(Cl)C(=O)[C@@H](Cl)[C@@]1(O)C(=O)OC", "Readout": "TGI", "Recorded Value": "12.9 µM"}
{"Compound": "Cc1ccc(NC(=O)Cc2ccc(/C=C/C(=O)c3ncc[nH]3)cc2)cc1", "Readout": "TGI", "Recorded Value": "> 25 µM"}
{"Compound": "N#Cc1c(NC(=S)Nc2ccc(Cl)cc2)sc2c1CCCC2", "Readout": "TGI", "Recorded Value": "33.8 µM"}
{"Compound": "O=C1CC(c2cccc(O)c2)C2(C(=O)NC(=S)NC2=O)C(c2cccc(O)c2)C1 (stereo unspecified)", "Readout": "TGI", "Recorded Value": "> 100 µM"}

###

system: UACC-62 melanoma; test: NCI tumour cell line growth inhibition, 48 h
Readout: TGI (µM)

{"Molecule": "COc1ccc2c(c1)=C(C=C1C=CN(O)C=C1)C(=O)N=2", "Op": "=", "Recorded Value": 86.1}
{"Molecule": "CCOC(=O)C1C(c2ccc(OC)cc2)c2c([nH]n(-c3ccccc3)c2=O)CC1(O)OCC (stereo not drawn)", "Op": ">", "Recorded Value": 100}
{"Molecule": "CC(=O)NNc1nc(C)c(C(/C=C/c2ccc([N+](=O)[O-])cc2)=N/N)s1", "Op": ">", "Recorded Value": 100}
{"Molecule": "CC(C)CC[C@H](O)[C@@H](C)[C@H]1[C@@H](OC2OC(C)C(O)C(O)C2O)C[C@H]2[C@@H]3CC=C4C[C@@H](O)CC[C@]4(C)[C@H]3[C@@H](O)C[C@]12C (stereo partly drawn)", "Op": "=", "Recorded Value": 3.21}
{"Molecule": "COC(c1cccc(C(O)(C(F)(F)F)C(F)(F)F)c1)(C(F)(F)F)C(F)(F)F", "Op": "=", "Recorded Value": 28.2}
{"Molecule": "O=Cc1c2ccccc2n2ccc3c4ccccc4[nH]c3c12", "Op": ">", "Recorded Value": 10}
{"Molecule": "CC(=O)Oc1cc(C)c2c(c1OC(C)=O)CC1(O2)[C@@H](C)CCC2[C@@]3(C)CC[C@H](OC(C)=O)C(C)(C)C3CC[C@]21C (stereo partly drawn)", "Op": "=", "Recorded Value": 5.26}
{"Molecule": "COc1cc(/C=N/n2c(Cc3ccc(Cl)cc3)n[nH]c2=O)cc(OC)c1OC", "Op": ">", "Recorded Value": 100}

###

tested on: BT-549 breast; assay: NCI tumour cell line growth inhibition, 48 h; in the data active means GI50 below about 0.43 µM; inactive means the rest
Classes used: active, inactive

{"Compound": "COc1cc2c(cc1OCCCCCOc1cc3c(cc1OC)C(=O)N1CC(F)C[C@H]1C=N3)N=C[C@@H]1CC(F)CN1C2=O (stereo partly specified)", "Group": "active"}
{"Compound": "Cc1cc(NCCCNc2ccnc3cc(Cl)ccc23)nc(N2CCN(C)CC2)n1", "Group": "inactive"}
{"Compound": "Cn1cc(C2=C(c3cn(CCO)c4ccccc34)C(=O)NC2=O)c2ccccc21", "Group": "inactive"}
{"Compound": "Cn1ccnc1C(=O)/C=C/c1ccc(C(=O)Nc2ccc(S(F)(F)(F)(F)F)cc2)cc1", "Group": "inactive"}
{"Compound": "CC(=O)Nc1ccc(/C=C/C(=O)c2ccccc2)cc1", "Group": "inactive"}
{"Compound": "O=S(=O)(Cc1ccc(Cl)cc1Cl)c1ccc(Cl)cc1", "Group": "inactive"}
{"Compound": "O=c1cc(-c2ccccc2)oc2cc(O)c(O)c(O)c12", "Group": "inactive"}
{"Compound": "CCCCOc1ccc(NC(=O)n2nc(N)c3ccccc32)cc1", "Group": "inactive"}
{"Compound": "N#C/C(=N\\Nc1ccc(Cl)cc1)C(=O)Nc1cc(-c2ccccc2)nn1-c1ccccc1", "Group": "inactive"}
{"Compound": "O=c1c2ccccc2c(Br)c(Br)c2ccccc12", "Group": "inactive"}
{"Compound": "N#Cc1cccc(OCc2nc(N)nc(N)c2-c2ccc(Cl)c(Cl)c2)c1", "Group": "inactive"}

###

system: M14 melanoma; experiment: NCI tumour cell line growth inhibition, 48 h
Readout: TGI (µM)

{"Compound": "CN(c1cc2ncc(=O)[nH]c2cc1NC(N)=NCc1ccc(Cl)cc1)C1CCCCC1", "Readout": "TGI", "Unit String": "µM", "Op": "=", "Recorded Value": 14.9}
{"Compound": "COc1ccc(/C=C/c2sc3ccccc3[n+]2CCCCI)cc1OC", "Readout": "TGI", "Unit String": "µM", "Op": ">", "Recorded Value": 10}
{"Compound": "CCCc1cc(O)c2c3c(c(=O)oc2c1)CN(C)CC3", "Readout": "TGI", "Unit String": "µM", "Op": ">", "Recorded Value": 100}
{"Compound": "O=Cc1cc([N+](=O)[O-])no1", "Readout": "TGI", "Unit String": "µM", "Op": "=", "Recorded Value": 35.6}
{"Compound": "COC(=O)[C@@H]1C=C[C@H](OC2OC(COC(C)=O)C(OC(C)=O)C(OC(C)=O)C2OC(C)=O)n2c(=O)c3ccccc3c(=O)n21 (stereo not given in full)", "Readout": "TGI", "Unit String": "µM", "Op": "=", "Recorded Value": 36.9}
{"Compound": "COc1cc(/C=C2/SC(c3ccccc3)N(c3cccc(Cl)c3)C2=O)cc(OC)c1OC (stereo not given)", "Readout": "TGI", "Unit String": "µM", "Op": ">", "Recorded Value": 100}
{"Compound": "N#Cc1ncc(-c2ccc(C(F)(F)F)cc2)c(NCc2cc(C(F)(F)F)cc(C(F)(F)F)c2)n1", "Readout": "TGI", "Unit String": "µM", "Op": ">", "Recorded Value": 100}
{"Compound": "COC(=O)C1CCC(Nc2ccc(C)cc2C)=N1 (stereo not given)", "Readout": "TGI", "Unit String": "µM", "Op": ">", "Recorded Value": 100}
{"Compound": "O=c1[nH]cnc2c1sc1nc3ccccc3n12", "Readout": "TGI", "Unit String": "µM", "Op": ">", "Recorded Value": 100}
{"Compound": "C=C(C)C1Cc2c(cc(OC)c3c(=O)c4cccc(O)c4oc23)O1 (stereo not given)", "Readout": "TGI", "Unit String": "µM", "Op": "=", "Recorded Value": 50.8}
